- SYSTEM: Son of sevenless homolog 1 (Homo sapiens, UniProt Q07889)
- Sequence (Q07889 whole entry): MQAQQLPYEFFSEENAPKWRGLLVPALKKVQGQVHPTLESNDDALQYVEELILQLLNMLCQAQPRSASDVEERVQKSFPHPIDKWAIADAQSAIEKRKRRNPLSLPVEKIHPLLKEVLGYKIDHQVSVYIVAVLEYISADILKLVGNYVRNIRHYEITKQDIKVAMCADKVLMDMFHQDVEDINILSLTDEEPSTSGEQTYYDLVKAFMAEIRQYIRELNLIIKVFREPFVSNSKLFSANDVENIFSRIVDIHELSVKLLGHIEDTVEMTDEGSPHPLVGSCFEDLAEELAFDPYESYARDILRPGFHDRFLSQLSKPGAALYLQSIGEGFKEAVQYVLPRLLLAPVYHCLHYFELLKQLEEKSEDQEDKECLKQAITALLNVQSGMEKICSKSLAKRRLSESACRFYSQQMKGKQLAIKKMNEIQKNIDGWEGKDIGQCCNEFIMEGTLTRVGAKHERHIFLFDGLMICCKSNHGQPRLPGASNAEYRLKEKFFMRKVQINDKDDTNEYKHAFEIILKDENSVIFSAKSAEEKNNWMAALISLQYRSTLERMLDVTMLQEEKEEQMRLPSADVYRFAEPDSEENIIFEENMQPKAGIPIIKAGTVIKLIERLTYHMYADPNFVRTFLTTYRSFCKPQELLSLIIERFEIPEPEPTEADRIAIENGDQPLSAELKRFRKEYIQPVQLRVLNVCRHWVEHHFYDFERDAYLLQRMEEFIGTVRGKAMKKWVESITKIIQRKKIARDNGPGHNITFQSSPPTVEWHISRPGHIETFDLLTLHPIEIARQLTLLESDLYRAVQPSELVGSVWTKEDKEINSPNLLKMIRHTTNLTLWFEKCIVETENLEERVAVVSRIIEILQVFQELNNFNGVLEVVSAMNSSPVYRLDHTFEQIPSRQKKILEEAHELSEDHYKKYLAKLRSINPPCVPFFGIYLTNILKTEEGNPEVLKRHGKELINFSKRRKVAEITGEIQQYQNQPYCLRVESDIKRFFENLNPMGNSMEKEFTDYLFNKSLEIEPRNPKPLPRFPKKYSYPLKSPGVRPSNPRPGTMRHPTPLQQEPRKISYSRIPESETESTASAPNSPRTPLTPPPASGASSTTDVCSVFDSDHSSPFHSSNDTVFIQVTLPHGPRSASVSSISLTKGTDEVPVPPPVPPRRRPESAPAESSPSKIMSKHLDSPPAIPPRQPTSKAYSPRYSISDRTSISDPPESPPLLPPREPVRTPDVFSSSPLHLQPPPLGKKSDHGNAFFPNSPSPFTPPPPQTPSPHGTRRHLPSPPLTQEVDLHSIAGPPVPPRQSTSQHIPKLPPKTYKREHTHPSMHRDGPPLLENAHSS
ENDPOINT: pKi
The quantity pKi is defined as the negative base-10 logarithm of the molar concentration.

Q. Record lookup: for Son of sevenless homolog 1 (Homo sapiens, UniProt Q07889), what pKi belongs to `COC(=O)N1CCN2c3cc4c(N[C@H](C)c5cccc(C(F)F)c5F)nnc(C)c4cc3OC[C@H]2C1` ?
A. 8.41

---

- SYSTEM: Son of sevenless homolog 1 (Homo sapiens, UniProt Q07889)
- Sequence (Q07889 whole entry): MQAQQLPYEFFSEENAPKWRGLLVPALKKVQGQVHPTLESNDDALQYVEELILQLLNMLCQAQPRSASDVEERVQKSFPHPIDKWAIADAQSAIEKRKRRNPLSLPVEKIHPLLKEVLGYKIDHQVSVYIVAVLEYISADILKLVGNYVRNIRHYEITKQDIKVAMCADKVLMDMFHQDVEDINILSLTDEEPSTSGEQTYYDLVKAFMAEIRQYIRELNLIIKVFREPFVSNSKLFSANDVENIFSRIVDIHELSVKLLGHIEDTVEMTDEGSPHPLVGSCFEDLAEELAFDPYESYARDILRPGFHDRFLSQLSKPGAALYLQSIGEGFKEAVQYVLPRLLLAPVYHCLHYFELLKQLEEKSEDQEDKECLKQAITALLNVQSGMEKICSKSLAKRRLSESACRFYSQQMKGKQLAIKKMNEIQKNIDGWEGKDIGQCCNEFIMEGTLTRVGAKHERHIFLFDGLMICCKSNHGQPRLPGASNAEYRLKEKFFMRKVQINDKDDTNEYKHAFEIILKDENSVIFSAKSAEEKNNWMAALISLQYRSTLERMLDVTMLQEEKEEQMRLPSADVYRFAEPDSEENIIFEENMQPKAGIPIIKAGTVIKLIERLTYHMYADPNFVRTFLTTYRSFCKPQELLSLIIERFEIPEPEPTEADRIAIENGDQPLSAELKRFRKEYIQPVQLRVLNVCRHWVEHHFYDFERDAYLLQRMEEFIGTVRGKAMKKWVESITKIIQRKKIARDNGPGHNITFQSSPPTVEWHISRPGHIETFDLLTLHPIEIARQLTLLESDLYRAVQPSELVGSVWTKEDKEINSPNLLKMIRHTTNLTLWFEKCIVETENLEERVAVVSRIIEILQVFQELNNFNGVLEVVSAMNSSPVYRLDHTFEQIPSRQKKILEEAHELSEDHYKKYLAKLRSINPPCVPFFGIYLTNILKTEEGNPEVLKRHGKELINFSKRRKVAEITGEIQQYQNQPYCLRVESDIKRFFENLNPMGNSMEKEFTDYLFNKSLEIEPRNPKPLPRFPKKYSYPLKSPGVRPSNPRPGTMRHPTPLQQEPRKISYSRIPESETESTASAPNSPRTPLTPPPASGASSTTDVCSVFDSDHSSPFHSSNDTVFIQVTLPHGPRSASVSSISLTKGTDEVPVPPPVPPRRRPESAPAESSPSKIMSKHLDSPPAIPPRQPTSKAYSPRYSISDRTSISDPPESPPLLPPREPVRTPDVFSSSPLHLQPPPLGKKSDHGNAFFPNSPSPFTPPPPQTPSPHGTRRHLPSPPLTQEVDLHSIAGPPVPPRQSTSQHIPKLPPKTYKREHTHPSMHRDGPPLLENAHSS
- TEST_METHOD_NOTES: Inhibition of SOS1 in human Calu-1 cells assessed as reduction in pERK level incubated for 24 hrs by HTRF analysis
- Type: cell-based
ENDPOINT: pIC50
The quantity pIC50 is defined as the negative base-10 logarithm of the molar concentration.

Q. I would be grateful if you could share the reported pIC50 for `Cc1nc(N[C@H](C)c2cccc(C(F)F)c2F)c2cc3c(cc2n1)OC[C@H]1CN(C(=O)C2(C#N)CC2)CCN31` .
A. 8.30

Q. Ok, now `COC(=O)N1CCN2c3cc4c(N[C@H](C)c5cccc(C(F)F)c5F)nnc(C)c4cc3OC[C@H]2C1`
A. 8.80
